# TEST_SYSTEM: recombinant human α2A -R (Homo sapiens, UniProt P08913)
# Sequence (P08913 whole entry): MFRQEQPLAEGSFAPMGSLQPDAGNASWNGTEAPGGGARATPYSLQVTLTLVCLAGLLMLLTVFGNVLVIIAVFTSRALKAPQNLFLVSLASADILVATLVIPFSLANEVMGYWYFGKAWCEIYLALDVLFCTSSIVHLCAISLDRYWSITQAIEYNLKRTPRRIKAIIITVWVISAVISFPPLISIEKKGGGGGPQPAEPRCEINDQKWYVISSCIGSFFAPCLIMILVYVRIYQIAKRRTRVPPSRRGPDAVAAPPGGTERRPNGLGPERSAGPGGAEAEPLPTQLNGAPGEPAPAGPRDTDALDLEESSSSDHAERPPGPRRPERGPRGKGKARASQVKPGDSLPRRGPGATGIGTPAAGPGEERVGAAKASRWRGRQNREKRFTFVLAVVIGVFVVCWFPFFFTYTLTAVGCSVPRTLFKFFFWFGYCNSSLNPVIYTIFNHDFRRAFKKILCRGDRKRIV
# ASSAY_EXPLANATION: [3H]clonidine radioligand competitive binding assay
# PARTICULARS: Kd with the Cheng–Prusoff correction, without UV; 15 nM [3H]-clonidine
pKd: −log10 of the molar value.

[
  {
    "COMPOUND": "CC(c1cccc(C2(C(F)(F)F)N=N2)c1)c1cnc[nH]1 (stereo not shown)",
    "pKd": 8.68
  }
]

----------
# TEST_SYSTEM: recombinant human α2A -R (Homo sapiens, UniProt P08913)
# ASSAY_EXPLANATION: [3H]clonidine radioligand competitive binding assay
# PARTICULARS: Kd with the Cheng–Prusoff correction, with UV exposure (350 nm light, 30 min); 15 nM [3H]-clonidine
pKd: −log10 of the molar value.

[
  {
    "MOLECULE": "CC(c1cccc(C2(C(F)(F)F)N=N2)c1)c1cnc[nH]1 (stereo not shown)",
    "TEST_SYSTEM": "recombinant human α2A -R (Homo sapiens, UniProt P08913)",
    "pKd": 8.43
  }
]
